# Tested on: HS 578T breast
# protocol-summary: NCI tumour cell line growth inhibition, 48 h; in the data active = GI50 below about 0.43 µM; inactive = the rest
API: response.call in active, inactive

How did this test come out for "CCOc1ccc(-c2cnnn2-c2nonc2-n2cccc2)cc1" ?
active

How did this test come out for "CC(C)[C@H]1CC[C@H]2[C@@H](CC[C@H]3[C@](C)(CN)CCC[C@]23C)C1" ?
inactive

How did this test come out for COc1cc2c(cc1OCCCCCOc1cc3c(cc1OC)C(=O)N1CC(F)C[C@H]1C=N3)N=C[C@@H]1CC(F)CN1C2=O (some centres undefined) ?
active

How did this test come out for CC(=O)N1N=C(c2ccc(Nc3nc(Nc4ccc(Cl)cc4)nc(Nc4ccc(Cl)cc4)n3)cc2)CC1c1ccc([N+](=O)[O-])cc1 (centres undefined) ?
inactive

----------
# Tested on: TK-10 renal
# protocol-summary: NCI tumour cell line growth inhibition, 48 h
Reported values of TGI for individual entries
Respond numerically; units are µM and should not be typed.

N#Cc1ncc(-c2ccc(C(F)(F)F)cc2)c(NCc2cc(C(F)(F)F)cc(C(F)(F)F)c2)n1 :: 56
S=C(N/N=C(/c1ccccc1)c1ccccn1)N1CCCCC1 :: 1.97

Recorded TGI (compound "COc1cc(OC)cc(OCc2ccc3nc(-c4ccccc4)c(Cl)nc3c2)c1" ): 55.6

Recorded TGI (compound "O=C(NCCCCN(CCCNC(=O)C(F)(F)F)Cc1ccc2ccccc2c1)C(F)(F)F" ): 47.9

----------
# Test system: MDA-MB-435
# protocol-summary: NCI tumour cell line growth inhibition, 48 h
Reported values of GI50 for individual entries

CCOc1ccccc1NC(=O)c1cc2ccccc2cc1O :: 2380 nM
Cc1ccc2c(c1)c1nc3cc(C)c(C)cc3nc1n2CCN(C)C :: 1980 nM
CN(Cc1ccc(Cl)cc1)c1ccc(CO)c(Cl)c1 :: 13500 nM
O=c1c2ccccc2c(Br)c(Br)c2ccccc12 :: 4560 nM
O=C1C2C(C(=O)[N]1[Hg][c]1cccs1)C1(Cl)C(Cl)=C(Cl)C2(Cl)C1(Cl)Cl (stereo not given) :: 1470 nM
Cc1ccc(NC(=O)Cc2ccc(/C=C/C(=O)c3ncc[nH]3)cc2)cc1 :: 5680 nM

Next item in the queue.
// assay MDA-MB-435, entry "N/C(=C\C(=O)n1nc(-c2ccccc2)cc1N)c1ccccc1" , GI50 value = 1190 nM

----------
# Tested on: RXF 393 renal
# protocol-summary: NCI tumour cell line growth inhibition, 48 h
TGI vs 10 µM: at or above is Yes, below is No.

Determine whether measured TGI meets or exceeds 10 µM for "Cc1nc2ccc(Cl)cc2c2c1CCS2"
Yes

Determine whether measured TGI meets or exceeds 10 µM for "Cc1ccc(Cc2n[nH]c(=O)n2/N=C\CC/C=N\n2c(Cc3ccc(C)cc3)n[nH]c2=O)cc1"
Yes

Determine whether measured TGI meets or exceeds 10 µM for "Cn1c(N)c(C(N)=O)[nH]c1=S"
Yes

Determine whether measured TGI meets or exceeds 10 µM for COc1cc(C(=O)N2N=C(c3ccc(S(C)(=O)=O)cc3)CC2c2ccco2)cc(OC)c1OC (stereo unspecified)
Yes

Determine whether measured TGI meets or exceeds 10 µM for CC(=O)Oc1cc(C)c2c(c1OC(C)=O)CC1(O2)[C@@H](C)CCC2[C@@]3(C)CC[C@H](OC(C)=O)C(C)(C)C3CC[C@]21C (stereo partly specified)
No

Determine whether measured TGI meets or exceeds 10 µM for "CCCCCCNC(=O)c1cc(CCc2cc(O)ccc2O)ccc1O"
No

----------
Reported values of TGI for individual entries
# Test system: HL-60(TB) leukemia
# protocol-summary: NCI tumour cell line growth inhibition, 48 h

Cc1ccc(N=NC2S/C(=C(\C#N)c3nc4ccccc4[nH]3)N(c3ccccc3)C2=O)cc1 (configuration not stated) :: > 100 µM
COc1cc2cc(C(=O)CCC(=O)O)sc2cc1OC :: > 100 µM
Cn1cc(C2=C(c3cn(CCO)c4ccccc34)C(=O)NC2=O)c2ccccc21 :: 6.36 µM
Nc1ccc(-c2cssc2=S)cc1 :: 62.5 µM
COc1ccc(N(CN2C(=O)CCC2C(=O)O)C(C)=O)cc1 (configuration not stated) :: > 100 µM
n1onc2c1NC1Nc3nonc3NC1N2 (configuration not stated) :: > 100 µM
COc1ccc(/C=C/c2sc3ccccc3[n+]2CCCCI)cc1OC :: 7.48 µM
CN(C)c1ccc(/C=C(\NC(=O)c2ccccc2)C(=O)NCC(=O)O)cc1 :: > 100 µM

Recorded TGI (molecule COc1cccc(C2C3=C(COC3=O)N(CCO)c3cc(OC)ccc32)c1 (configuration not stated) ): > 100 µM

Recorded TGI (molecule "Nc1nc2sc3ccccc3c(=O)n2n1" ): > 100 µM

Recorded TGI (molecule "O=C(N/N=C(/COc1ccc(Cl)cc1)N=Cc1cccnc1)c1ccncc1" ): > 100 µM

Recorded TGI (molecule "C=CCOC(=O)Cn1cc(C)c(=O)[nH]c1=O" ): > 100 µM

----------
# System: MCF7 breast
# protocol-summary: NCI tumour cell line growth inhibition, 48 h
observation-type: log10(TGI) (log10 of the value in µM)
Values reflect log10 of reported TGI (µM).

Guide cases for log10(TGI), answers given:
Cc1ccc(O)c(C(c2ccc([N+](=O)[O-])cc2)c2cc(C)ccc2O)c1 :: 1.31
C/C=C/C/C=C/CCC(=O)[C@H]1O[C@H]1C(N)=O :: 1.42
CC(C)[C@H]1CC[C@H]2[C@@H](CC[C@H]3[C@](C)(CN)CCC[C@]23C)C1 :: 0.45

Next item in the queue.
Recorded log10(TGI) (molecule "CCN1C=C/C(=C\C=C/c2cc[n+](CC)c3ccccc23)c2ccccc21" ): 1.30

----------
# Test system: PC-3 prostate
# protocol-summary: NCI tumour cell line growth inhibition, 48 h
observation-type: TGI (µM)
Respond numerically; units are µM and should not be typed.

Guide cases for TGI, answers given:
Cc1ccc(S(=O)(=O)n2c3c(c4ccccc42)CCN2C(=O)C(S(=O)(=O)c4ccccc4)=CCC32)cc1 (stereo not given) :: 0.562
C/C=C1/CN2CCc3c([nH]c4ccccc34)[C@@H]2C[C@@H]1Cc1[nH]ccc2c1[nH]c1cc(=O)ccc12 :: 6.88
CCCCCCNC(=O)c1cc(CCc2cc(O)ccc2O)ccc1O :: 6.49
O=c1cc(-c2ccc(O)cc2)n(C2CC2)c2ccccc12 :: 92.3
CN(Cc1ccc(Cl)cc1)c1ccc(CO)c(Cl)c1 :: 31

Next item in the queue.
// assay PC-3 prostate, entry "CCC[CH2][Sn]([CH2]CCC)([O]C(=O)c1cc(F)ccc1F)[O][Sn]([CH2]CCC)([CH2]CCC)[O]C(=O)c1cc(F)ccc1F" , TGI value = 2.01

----------
# System: HS 578T breast
# protocol-summary: NCI tumour cell line growth inhibition, 48 h
observation-type: TGI

Guide cases for TGI, answers given:
Cn1cc(C2=C(c3cccc(N)c3)C(=O)NC2=O)c2ccccc21 :: > 25 µM
COC(=O)[C@@H]1C=C[C@H](OC2OC(COC(C)=O)C(OC(C)=O)C(OC(C)=O)C2OC(C)=O)n2c(=O)c3ccccc3c(=O)n21 (some centres undefined) :: 76.2 µM
CC(=O)N1CN2C(=O)CCC2c2ccccc21 (centres undefined) :: > 100 µM

Recorded TGI (molecule CC1=NNC(=O)C1C1CC(c2c[nH]c3ccccc23)=NNC1=S (centres undefined) ): > 100 µM

Recorded TGI (molecule "O=c1c2c3c(sc2n2c(-c4cc(-c5ccccc5)no4)nnc2n1Cc1ccccc1)CCCC3" ): > 94.7 µM

Recorded TGI (molecule "COc1ccc(-n2cc(-c3cc(OC)c(OC)c(OC)c3)nc2SCc2ccccc2)cc1" ): > 100 µM

Recorded TGI (molecule CS(=O)(=O)OCC1OC(n2ccc(NC(=O)c3ccccc3)nc2=O)CC1OS(C)(=O)=O (centres undefined) ): > 100 µM

Recorded TGI (molecule CC(C)(C)n1c(=O)[nH]n(C2NN=Cc3cccc4cccc2c34)c1=O (centres undefined) ): > 100 µM

Recorded TGI (molecule "O=C(C=P(c1ccccc1)(c1ccccc1)c1ccccc1)c1cccc(-c2cccc([N+](=O)[O-])c2)c1" ): > 100 µM

----------
# System: SK-OV-3 ovarian
# protocol-summary: NCI tumour cell line growth inhibition, 48 h; in the data active = GI50 below about 0.43 µM; inactive = the rest
API: response.call in active, inactive

Sample answers from the record:
O=S(=O)(Cc1ccc(Cl)cc1Cl)c1ccc(Cl)cc1 :: inactive
N#Cc1ncc(-c2ccc(C(F)(F)F)cc2)c(NCc2cc(C(F)(F)F)cc(C(F)(F)F)c2)n1 :: inactive
Clc1cc2c(cc1Cl)Oc1cc(Cl)c(Cl)cc1O2 :: inactive
COc1ccc2c(c1)=C(C=C1C=CN(O)C=C1)C(=O)N=2 :: inactive
COc1cc2cc(C(=O)CCC(=O)O)sc2cc1OC :: inactive

How did this test come out for "[Cl][Sn]([Cl])([c]1ccccc1)[c]1ccccc1" ?
inactive

How did this test come out for "N/C(=C\C(=O)n1nc(-c2ccccc2)cc1N)c1ccccc1" ?
inactive

How did this test come out for COc1ccc(C2CC(c3cccc(Nc4ccncc4)c3)=NN2c2ccc(Cl)cc2)cc1 (stereo unspecified) ?
inactive

How did this test come out for "CC(=O)Nc1ccc(/C=C/C(=O)c2ccccc2)cc1" ?
inactive
